FYI, the data here is from patent US20250041294A1.

Attribute: Average ZIP synergy score
- System: GOT3 cell line
- Test Details: Drug combination testing with concentration matrices, SynergyFinder 2.0
- Assay type: cell-based
- Settings: combination with anagrelide, seven-concentration matrices
Write the value as a bare number.

Would you please look over these solved cases?
{"Compound": "CN(C)CC#Cc1ccc(OCCCc2sc(N3CCc4cccc(C(=O)Nc5nc6ccccc6s5)c4C3)nc2C(=O)O)c(F)c1 [A-1155463]", "System Name": "GOT3 cell line", "Average ZIP synergy score": 12.7}
{"Compound": "CO[C@H]1C[C@@H]2CC[C@@H](C)[C@@](O)(O2)C(=O)C(=O)N2CCCC[C@H]2C(=O)O[C@H]([C@H](C)C[C@@H]2CC[C@@H](OC(=O)C(C)(CO)CO)[C@H](OC)C2)CC(=O)[C@H](C)/C=C(\\C)[C@@H](O)[C@@H](OC)C(=O)[C@H](C)C[C@H](C)/C=C/C=C/C=C/1C [Temsirolimus, temsirolimus]", "System Name": "GOT3 cell line", "Average ZIP synergy score": 0.4}
{"Compound": "CO[C@H]1C[C@@H]2CC[C@@H](C)[C@@](O)(O2)C(=O)C(=O)N2CCCC[C@H]2C(=O)O[C@H]([C@H](C)C[C@@H]2CC[C@@H](OCCO)[C@H](OC)C2)CC(=O)[C@H](C)/C=C(\\C)[C@@H](O)[C@@H](OC)C(=O)[C@H](C)C[C@H](C)/C=C/C=C/C=C/1C [Everolimus, everolimus]", "System Name": "GOT3 cell line", "Average ZIP synergy score": 2.3}

Query: Look up Average ZIP synergy score of NS(=O)(=O)OC[C@@H]1C[C@@H](n2ccc3c(N[C@H]4CCc5ccccc54)ncnc32)C[C@@H]1O [Pevonedistat, pevonedistat] and report it.
Reply: 12.7

---

- Test system: GOT3 cell line
- Test Details: Drug combination testing with concentration matrices, SynergyFinder 2.0
- Type: cell-based
- Settings: combination with anagrelide, seven-concentration matrices
Binary call on Average ZIP synergy score with cut-off 2: strictly below means met, and equality or higher means not met.

Worked examples follow.
{"Compound": "Cc1nc(Nc2n[nH]c3c2CN(C(=O)N[C@H](CN(C)C)c2ccccc2)C3(C)C)c2sccc2n1 [PF-03758309]", "Category Label": "not met"}
{"Compound": "Cc1ccc(NS(=O)(=O)c2cccc(C#N)c2)c2[nH]cc(C#N)c12 [E7820]", "Category Label": "met"}
{"Compound": "Cn1cc(CNCC2CCN(c3ncc(C(=O)NO)cn3)CC2)c2ccccc21 [Quisinostat, quisinostat]", "Category Label": "not met"}

Query: Check if Average ZIP synergy score falls below 2 for Cc1c(-c2ccc(N3CCc4cccc(C(=O)Nc5nc6ccccc6s5)c4C3)nc2C(=O)O)cnn1CC12CC3CC(CC(C3)C1)C2 [A-1331852] .
Reply: not met

Query: Given the entry CC1(C)CCC(c2ccc(Cl)cc2)=C(CN2CCN(c3ccc(C(=O)NS(=O)(=O)c4ccc(N[C@H](CCN5CCOCC5)CSc5ccccc5)c(S(=O)(=O)C(F)(F)F)c4)cc3)CC2)C1 [Navitoclax, navitoclax] , would its reported Average ZIP synergy score be below 2?
Reply: not met

Query: Average ZIP synergy score strictly < 2 for this compound? CCN1C(=O)CNc2ncc(-c3ccc(-c4nc[nH]n4)nc3C)nc21 [CC-115]
Reply: met

---

- Tested on: SA4 cell line
- Test Details: High throughput drug sensitivity and resistance test (CellTiter-Glo, 72 hours)
- Type: cell-based
- Settings: drug combined with BAY2666605 (40 nM) minus drug alone, SA4
Measurement Kind: SA4 cell line: DSS(combo (BAY2666605))-DSS(drug)
Lab note: write the figure by itself, no unit.

Query: Using SA4 cell line as the test system, report measured SA4 cell line: DSS(combo (BAY2666605))-DSS(drug) of CN(C)CC#Cc1ccc(OCCCc2sc(N3CCc4cccc(C(=O)Nc5nc6ccccc6s5)c4C3)nc2C(=O)O)c(F)c1 .
Reply: −3.6

Query: Provide the reported SA4 cell line: DSS(combo (BAY2666605))-DSS(drug) (system: SA4 cell line) for C=C(c1ccc(C(=O)O)cc1)c1cc2c(cc1C)C(C)(C)CCC2(C)C
Reply: 6.4

Query: Quote SA4 cell line SA4 cell line: DSS(combo (BAY2666605))-DSS(drug) for entry CCN(CC)Cc1ccc2cc(COC(=O)Nc3ccc(C(=O)NO)cc3)ccc2c1 .
Reply: 18.5

Query: # return SA4 cell line: DSS(combo (BAY2666605))-DSS(drug) for COc1ccc(-c2ccc3ncc4c(c3c2)n(-c2ccc(N3CCNCC3)c(C(F)(F)F)c2)c(=O)n4C)cn1 , test system: SA4 cell line
Reply: 8.1

Query: Fill: SA4 cell line: DSS(combo (BAY2666605))-DSS(drug) (SA4 cell line) for this compound COc1cc(C(=O)O)ccc1NC(=O)[C@@H]1N[C@@H](CC(C)(C)C)[C@](C#N)(c2ccc(Cl)cc2F)[C@H]1c1cccc(Cl)c1F
Reply: 19.6

Query: Enter SA4 cell line: DSS(combo (BAY2666605))-DSS(drug) (test system SA4 cell line) for COc1ncc(-c2ccc3nccc(-c4ccnnc4)c3c2)cc1NS(=O)(=O)c1ccc(F)cc1F
Reply: 6.5

Query: Report SA4 cell line: DSS(combo (BAY2666605))-DSS(drug) on SA4 cell line for this entry: Cn1c(=O)n(-c2ccc(C(C)(C)C#N)cc2)c2c3cc(-c4cnc5ccccc5c4)ccc3ncc21
Reply: 4.6

Query: Give SA4 cell line SA4 cell line: DSS(combo (BAY2666605))-DSS(drug) for the following compound: Cc1nc(Nc2n[nH]c3c2CN(C(=O)N[C@H](CN(C)C)c2ccccc2)C3(C)C)c2sccc2n1
Reply: 13.4

Query: Lab note: record SA4 cell line: DSS(combo (BAY2666605))-DSS(drug) of Cc1[nH]c2ccccc2c1CCNCc1ccc(/C=C/C(=O)NO)cc1 tested on SA4 cell line.
Reply: 6.7

Query: # return SA4 cell line: DSS(combo (BAY2666605))-DSS(drug) of NS(=O)(=O)OC[C@@H]1C[C@@H](n2ccc3c(N[C@H]4CCc5ccccc54)ncnc32)C[C@@H]1O (system: SA4 cell line)
Reply: 7

---

- Tested on: SA4 cell line
- Test Details: High throughput drug sensitivity and resistance test (CellTiter-Glo, 72 hours)
- Assay type: cell-based
- Settings: Anagrelide alone, SA4, cell viability 72 hours
Measurement Kind: IC50 (nM)
// note: answer is a bare numeric in nM

Query: Identify the reported IC50 for the following entry. O=C1CN2Cc3c(ccc(Cl)c3Cl)N=C2N1 [Anagrelide, anagrelide]
Reply: 73.5

---

- System: SA4 cell line
- Test Details: High throughput drug sensitivity and resistance test (CellTiter-Glo, 72 hours)
- Assay type: cell-based
- Settings: drug combined with anagrelide hydrochloride (100 nM) minus drug alone, SA4
# SA4 cell line: DSS(combo (anagrelide))-DSS(drug) >= 10 gives True, anything below gives False

{"Smiles Str": "CCN(CCO)CCCOc1ccc2c(Nc3cc(CC(=O)Nc4cccc(F)c4)[nH]n3)ncnc2c1", "Category Label": "False"}
{"Smiles Str": "CC(C)[C@H](C(=O)Nc1ccc(C(=O)NO)cc1)c1ccccc1", "Category Label": "True"}

Query: For this compound, is measured SA4 cell line: DSS(combo (anagrelide))-DSS(drug) 10 or higher? CC1(C)CCC(c2ccc(Cl)cc2)=C(CN2CCN(c3ccc(C(=O)NS(=O)(=O)c4ccc(N[C@H](CCN5CCOCC5)CSc5ccccc5)c(S(=O)(=O)C(F)(F)F)c4)cc3)CC2)C1
Reply: True

Query: Could you tell me if the measured SA4 cell line: DSS(combo (anagrelide))-DSS(drug) of CNC(=O)c1nn(C)c2c1C(C)(C)Cc1cnc(Nc3ccc(N4CCN(C)CC4)cc3)nc1-2 reaches 10 or more?
Reply: False

Query: Check the entry COc1ccc(-c2nc(N3CCOCC3)c3sc(CN(C)c4ncc(C(=O)NO)cn4)cc3n2)cn1 : does SA4 cell line: DSS(combo (anagrelide))-DSS(drug) equal or exceed 10?
Reply: True

Query: Determine whether measured SA4 cell line: DSS(combo (anagrelide))-DSS(drug) meets or exceeds 10 for CCCCc1nc2cc(/C=C/C(=O)NO)ccc2n1CCN(CC)CC
Reply: True

Query: # check: SA4 cell line: DSS(combo (anagrelide))-DSS(drug) of CN(C)Cc1ccc(S(=O)(=O)n2ccc(/C=C/C(=O)NO)c2)cc1 is greater than or equal to 10
Reply: True

---

- Test system: SA4 cell line
- Test Details: Drug combination testing with concentration matrices, SynergyFinder 2.0
- Format: cell-based
- Settings: combination with anagrelide, seven-concentration matrices
Measurement Kind: Average ZIP synergy score
# print the numeric value only

{"Smiles Str": "Cc1c(-c2ccc(N3CCc4cccc(C(=O)Nc5nc6ccccc6s5)c4C3)nc2C(=O)O)cnn1CC12CC3CC(CC(C3)C1)C2", "Measured": 11.1}

Query: Please report the measured Average ZIP synergy score for Cc1ccc(NS(=O)(=O)c2cccc(C#N)c2)c2[nH]cc(C#N)c12
Reply: 14.8

Query: Given CO[C@H]1C[C@@H]2CC[C@@H](C)[C@@](O)(O2)C(=O)C(=O)N2CCCC[C@H]2C(=O)O[C@H]([C@H](C)C[C@@H]2CC[C@@H](OCCO)[C@H](OC)C2)CC(=O)[C@H](C)/C=C(\C)[C@@H](O)[C@@H](OC)C(=O)[C@H](C)C[C@H](C)/C=C/C=C/C=C/1C , respond with its Average ZIP synergy score.
Reply: 5.5
